- tested target: glutathione S-transferase (GST)-fusion human ERK2 protein (Homo sapiens, UniProt P28482)
- Construct: purchased Carna Biosciences, Inc; host or cells: E. coli expression system
- Sequence (P28482 whole entry, the tested form may be a part): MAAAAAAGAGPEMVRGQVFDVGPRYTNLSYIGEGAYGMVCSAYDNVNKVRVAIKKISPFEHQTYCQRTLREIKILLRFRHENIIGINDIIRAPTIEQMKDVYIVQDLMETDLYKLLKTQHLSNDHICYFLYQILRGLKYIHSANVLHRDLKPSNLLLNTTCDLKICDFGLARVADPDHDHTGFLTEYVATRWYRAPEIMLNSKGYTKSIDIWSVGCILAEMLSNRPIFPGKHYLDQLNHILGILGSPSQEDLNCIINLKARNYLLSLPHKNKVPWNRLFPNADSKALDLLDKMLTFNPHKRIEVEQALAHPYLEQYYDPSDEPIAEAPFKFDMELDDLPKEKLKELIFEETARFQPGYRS
- experimental details: ERK2 enzyme assay (LabChip mobility shift)
- Assay type: biochemical
- setup conditions: IC50 class; 2 nM ERK2, 4.25 μM FL-Peptide 8, 43 μM ATP; read-out: ERK2 Inhibitory Activity
quantity name: IC50

Which IC50 value belongs to O=C(NCCCCC1CCCCC1)Nc1ccc2ncc(-c3cnn(CCCN4CCOCC4)c3)cc2n1 ?
100 to 1000 nM

* * *

- tested target: human PI3Kα protein (Homo sapiens)
- Construct: purchased Carna Biosciences, Inc; host or cells: Baculovirus expression system
- experimental details: PI3Kα enzyme assay (ADP-Glo kinase assay)
- Assay type: biochemical
- setup conditions: IC50 class; 3 nM PI3Kα, 50 μM PIP2, 100 μM ATP; read-out: PI3Kα Inhibitory Activity
A collection of compounds and their measured IC50

Example cases with answers are listed next.
INSERT INTO results (compound, quantity_name, result) VALUES
  ('CCCCCNC(=O)Nc1ccc2ncc(-c3cn[nH]c3)cc2n1 [Compound 0094]', 'IC50', '< 100 nM'),
  ('CC1(NC(=O)Nc2ccc3ncc(N4CCOCC4)cc3n2)CCCC1 [Compound 0253]', 'IC50', '< 100 nM'),
  ('CN1CCN(c2cnc3ccc(NC(=O)NC4CCCC4)nc3c2)CC1 [Compound 0027]', 'IC50', '100 to 1000 nM');

Shift focus to the following entry.
Which IC50 value belongs to O=C(Nc1ccc2ncc(-c3cn[nH]c3)cc2n1)NC1CCOCC1 [Compound 0076] ?
100 to 1000 nM

* * *

- tested target: human PI3Kα protein (Homo sapiens, UniProt P42336)
- Construct: purchased Carna Biosciences, Inc; host or cells: Baculovirus expression system
- Sequence (P42336 whole entry): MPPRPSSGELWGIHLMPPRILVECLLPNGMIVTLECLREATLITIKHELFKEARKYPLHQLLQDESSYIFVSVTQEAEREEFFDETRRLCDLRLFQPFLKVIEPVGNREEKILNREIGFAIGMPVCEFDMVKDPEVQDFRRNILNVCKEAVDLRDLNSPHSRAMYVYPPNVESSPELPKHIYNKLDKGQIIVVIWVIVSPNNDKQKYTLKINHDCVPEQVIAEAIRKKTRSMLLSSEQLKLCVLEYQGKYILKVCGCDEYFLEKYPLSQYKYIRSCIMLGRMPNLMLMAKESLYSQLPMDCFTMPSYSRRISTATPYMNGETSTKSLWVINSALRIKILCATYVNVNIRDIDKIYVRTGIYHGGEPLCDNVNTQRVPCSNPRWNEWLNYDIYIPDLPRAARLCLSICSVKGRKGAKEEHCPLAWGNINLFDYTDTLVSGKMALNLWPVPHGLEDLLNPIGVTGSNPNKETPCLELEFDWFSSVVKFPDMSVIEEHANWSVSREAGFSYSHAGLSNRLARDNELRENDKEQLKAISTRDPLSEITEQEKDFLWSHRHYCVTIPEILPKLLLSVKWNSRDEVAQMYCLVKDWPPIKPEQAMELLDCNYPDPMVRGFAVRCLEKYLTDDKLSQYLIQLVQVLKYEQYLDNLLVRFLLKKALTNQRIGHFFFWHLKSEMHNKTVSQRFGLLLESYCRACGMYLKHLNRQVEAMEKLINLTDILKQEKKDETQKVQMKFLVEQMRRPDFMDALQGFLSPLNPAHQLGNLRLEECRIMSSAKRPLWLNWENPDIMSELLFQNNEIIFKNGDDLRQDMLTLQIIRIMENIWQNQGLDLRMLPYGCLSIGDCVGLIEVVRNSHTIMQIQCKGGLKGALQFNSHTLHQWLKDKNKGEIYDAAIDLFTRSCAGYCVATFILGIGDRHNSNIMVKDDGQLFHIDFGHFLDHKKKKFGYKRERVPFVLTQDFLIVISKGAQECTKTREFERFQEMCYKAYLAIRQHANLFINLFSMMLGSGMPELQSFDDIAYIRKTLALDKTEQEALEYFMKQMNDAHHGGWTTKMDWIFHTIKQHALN
- Sequence (P27986 whole entry partner): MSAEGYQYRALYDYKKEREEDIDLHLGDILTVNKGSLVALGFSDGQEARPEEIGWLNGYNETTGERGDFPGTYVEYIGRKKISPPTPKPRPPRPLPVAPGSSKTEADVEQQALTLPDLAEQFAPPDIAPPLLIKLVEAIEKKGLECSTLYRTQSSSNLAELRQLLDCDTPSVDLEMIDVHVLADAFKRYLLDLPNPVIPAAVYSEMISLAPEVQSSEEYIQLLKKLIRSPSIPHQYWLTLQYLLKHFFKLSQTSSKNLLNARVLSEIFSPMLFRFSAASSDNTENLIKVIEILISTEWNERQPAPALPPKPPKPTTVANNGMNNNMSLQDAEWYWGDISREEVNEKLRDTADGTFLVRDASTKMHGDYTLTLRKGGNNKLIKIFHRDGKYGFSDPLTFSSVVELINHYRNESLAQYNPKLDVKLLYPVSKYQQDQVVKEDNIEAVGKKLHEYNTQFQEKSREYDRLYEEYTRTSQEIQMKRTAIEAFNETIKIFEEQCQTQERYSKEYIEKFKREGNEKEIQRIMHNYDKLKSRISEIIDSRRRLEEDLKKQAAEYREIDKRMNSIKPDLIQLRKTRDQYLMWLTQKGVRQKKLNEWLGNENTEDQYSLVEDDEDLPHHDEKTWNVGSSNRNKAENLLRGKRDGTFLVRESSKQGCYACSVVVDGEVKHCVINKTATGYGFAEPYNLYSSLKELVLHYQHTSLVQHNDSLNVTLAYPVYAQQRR
- experimental details: PI3Kα enzyme assay (ADP-Glo kinase assay)
- Assay type: biochemical
- setup conditions: IC50 class; 3 nM PI3Kα, 50 μM PIP2, 100 μM ATP; read-out: PI3Kα Inhibitory Activity
quantity name: IC50

Which IC50 value belongs to O=C(NCC1CCOCC1)Nc1ccc2ncc(-c3cn[nH]c3)cc2n1 ?
100 to 1000 nM

Which IC50 value belongs to O=C(Nc1ccc2ncc(-c3ccc(O)cc3)cc2n1)NC1CCCC1 ?
< 100 nM

Which IC50 value belongs to CC(C)(C)OC(=O)N1CC[C@@H](NC(=O)Nc2ccc3ncc(-c4cn[nH]c4)cc3n2)C1 ?
100 to 1000 nM

Which IC50 value belongs to CC(CCc1ccccc1)NC(=O)Nc1ccc2ncc(-c3cnn(CCCN4CCOCC4)c3)cc2n1 (centres unmarked) ?
< 100 nM

* * *

- tested target: glutathione S-transferase (GST)-fusion human ERK2 protein (Homo sapiens, UniProt P28482)
- Construct: purchased Carna Biosciences, Inc; host or cells: E. coli expression system
- experimental details: ERK2 enzyme assay (LabChip mobility shift)
- Assay type: biochemical
- setup conditions: IC50 class; 2 nM ERK2, 4.25 μM FL-Peptide 8, 43 μM ATP; read-out: ERK2 Inhibitory Activity
A collection of compounds and their measured IC50

Example cases with answers are listed next.
INSERT INTO assay_data (structure_notation, result) VALUES
  ('O=C(Nc1ccc2ncc(-c3ccnc(O)c3)cc2n1)NC1CCCC1', '100 to 1000 nM'),
  ('O=C(Nc1ccc2ncc(-c3nn[nH]n3)cc2n1)NC1CCCC1', '100 to 1000 nM');

Lab note: need IC50 with glutathione S-transferase (GST)-fusion human ERK2 protein (Homo sapiens, UniProt P28482) for entry CCCC(C)(C)NC(=O)Nc1ccc2ncc(-c3cn[nH]c3)cc2n1 , please look it up.
< 100 nM

Lab note: need IC50 with glutathione S-transferase (GST)-fusion human ERK2 protein (Homo sapiens, UniProt P28482) for entry CC(C)(C)OC(=O)N1CCN(c2cnc3ccc(NC(=O)NC4CCCC4)nc3c2)CC1 , please look it up.
1000 to 10000 nM

Lab note: need IC50 with glutathione S-transferase (GST)-fusion human ERK2 protein (Homo sapiens, UniProt P28482) for entry COCC1(NC(=O)Nc2ccc3ncc(-c4cn[nH]c4)cc3n2)CCC1 , please look it up.
100 to 1000 nM

Lab note: need IC50 with glutathione S-transferase (GST)-fusion human ERK2 protein (Homo sapiens, UniProt P28482) for entry C[C@H](C[C@H](C)NC(=O)Nc1ccc2ncc(-c3cn[nH]c3)cc2n1)Oc1ccccc1 , please look it up.
100 to 1000 nM

Lab note: need IC50 with glutathione S-transferase (GST)-fusion human ERK2 protein (Homo sapiens, UniProt P28482) for entry O=C(Nc1ccc2ncc(Nc3cc[nH]n3)cc2n1)NC1CCCC1 , please look it up.
100 to 1000 nM

Lab note: need IC50 with glutathione S-transferase (GST)-fusion human ERK2 protein (Homo sapiens, UniProt P28482) for entry COc1ccccc1CCCCNC(=O)Nc1ccc2ncc(-c3cn[nH]c3)cc2n1 , please look it up.
< 100 nM

* * *

A collection of molecules and their measured IC50
- tested target: glutathione S-transferase (GST)-fusion human ERK2 protein (Homo sapiens, UniProt P28482)
- Construct: purchased Carna Biosciences, Inc; host or cells: E. coli expression system
- experimental details: ERK2 enzyme assay (LabChip mobility shift)
- Assay type: biochemical
- setup conditions: IC50 class; 2 nM ERK2, 4.25 μM FL-Peptide 8, 43 μM ATP; read-out: ERK2 Inhibitory Activity

INSERT INTO assay_data (structure_notation, result) VALUES
  ('CC1(NC(=O)Nc2ccc3ncc(-c4cn[nH]c4)cc3n2)CCC1', '100 to 1000 nM');

Shift focus to the following entry.
Which IC50 value belongs to CN(C)CC(C)(C)Cn1cc(-c2cnc3ccc(NC(=O)NC4CCCC4)nc3c2)cn1 ?
100 to 1000 nM

* * *

- tested target: human PI3Kα protein (Homo sapiens, UniProt P42336)
- Construct: purchased Carna Biosciences, Inc; host or cells: Baculovirus expression system
- experimental details: PI3Kα enzyme assay (ADP-Glo kinase assay)
- Format: biochemical
- setup conditions: IC50 class; 3 nM PI3Kα, 50 μM PIP2, 100 μM ATP; read-out: PI3Kα Inhibitory Activity
quantity name: IC50

Example cases with answers are listed next.
INSERT INTO assay_data (compound, quantity_name, result) VALUES
  ('CN(CCCNC(=O)Nc1ccc2ncc(-c3cn[nH]c3)cc2n1)c1ccccc1', 'IC50', '100 to 1000 nM'),
  ('CN1CCN(c2cnc3ccc(NC(=O)NC4CCCC4)nc3c2)CC1=O', 'IC50', '< 100 nM'),
  ('O=C(Nc1ccc2ncc(-c3ccncc3)cc2n1)NC1CCCC1', 'IC50', '< 100 nM'),
  ('CCCCCCNC(=O)Nc1ccc2ncc(-c3cn[nH]c3)cc2n1', 'IC50', '< 100 nM');

Shift focus to the following entry.
Which IC50 value belongs to O=C(Nc1ccc2ncc(N3CC(OCCCN4CCOCC4)C3)cc2n1)NC1CCCC1 ?
< 100 nM

* * *

- tested target: glutathione S-transferase (GST)-fusion human ERK2 protein (Homo sapiens)
- Construct: purchased Carna Biosciences, Inc; host or cells: E. coli expression system
- experimental details: ERK2 enzyme assay (LabChip mobility shift)
- Type: biochemical
- setup conditions: IC50 class; 2 nM ERK2, 4.25 μM FL-Peptide 8, 43 μM ATP; read-out: ERK2 Inhibitory Activity
quantity name: IC50

INSERT INTO results (compound, result) VALUES
  ('CC1CN(c2cnc3ccc(NC(=O)NC4CCCC4)nc3c2)CCO1 (stereo not drawn)', '100 to 1000 nM'),
  ('O=C(NCCC(F)(F)F)Nc1ccc2ncc(-c3cn[nH]c3)cc2n1', '< 100 nM'),
  ('N#Cc1cnc2ccc(NC(=O)NC3CCCC3)nc2c1', '1000 to 10000 nM'),
  ('CCNC(=O)Nc1ccc2ncc(-c3cn[nH]c3)cc2n1', '< 100 nM'),
  ('COCCNc1cnc2ccc(NC(=O)NC3CCCC3)nc2c1', '1000 to 10000 nM');

Which IC50 value belongs to O=C(NCC1CCCCO1)Nc1ccc2ncc(-c3cn[nH]c3)cc2n1 (stereo not drawn) ?
< 100 nM

Which IC50 value belongs to Cn1cc(-c2cnc3ccc(NC(=S)NC(=O)c4ccccc4)nc3c2)cn1 ?
100 to 1000 nM

Which IC50 value belongs to C#Cc1cnc2ccc(NC(=O)NC3CCCC3)nc2c1 ?
1000 to 10000 nM

Which IC50 value belongs to O=C(Nc1ccc2ncc(C3=CCOCC3)cc2n1)NC1CCCC1 ?
< 100 nM

* * *

A collection of compounds and their measured pIC50
- tested target: glutathione S-transferase (GST)-fusion human ERK2 protein (Homo sapiens, UniProt P28482)
- Construct: purchased Carna Biosciences, Inc; host or cells: E. coli expression system
- experimental details: ERK2 enzyme assay (LabChip mobility shift)
- Assay type: biochemical
- setup conditions: IC50 class; 2 nM ERK2, 4.25 μM FL-Peptide 8, 43 μM ATP; read-out: ERK2 Inhibitory Activity
pIC50: −log10 of the molar value.

Example cases with answers are listed next.
INSERT INTO assay_data (structure_notation, result) VALUES
  ('O=C(Nc1ccc2ncc(-c3cn[nH]c3)cc2n1)N[C@@H]1CCNC1', '> 7.00'),
  ('O=C(Nc1ccc2ncc(-c3cnn(CCCN4CCCC4)c3)cc2n1)NC1CCCC1', '> 7.00'),
  ('C=CCNC(=O)Nc1ccc2ncc(-c3cn[nH]c3)cc2n1', '> 7.00'),
  ('O=C(NCC1CCC(F)(F)CC1)Nc1ccc2ncc(-c3cnn(CCCN4CCOCC4)c3)cc2n1', '> 7.00'),
  ('O=C(NCCc1ccccc1)Nc1ccc2ncc(-c3cn[nH]c3)cc2n1', '> 7.00'),
  ('CN(C)Cc1nn(C)cc1-c1cnc2ccc(NC(=O)NC3CCCC3)nc2c1', '6.00 to 7.00'),
  ('COc1cccc(Nc2cnc3ccc(NC(=O)NC4CCCC4)nc3c2)c1', '< 5.00');

Shift focus to the following entry.
Which pIC50 value belongs to O=C(Nc1ccc2ncc(-c3cnn(CCCN4CCOCC4)c3)cc2n1)N[C@H]1CCN(Cc2ccccc2)C1 ?
6.00 to 7.00
